- assayInfo: physchem
- measurementParameters: octanol/water
- Description: Lipophilicity, log P of the compound
# if measured logP < 6: t  # else: f

Consider the worked cases shown below.
[
  {
    "compound": "COc1ccc(-c2cc(NCc3cncn3Cc3ccc(-c4ccccc4)cc3)ccc2-c2nc3ccccc3s2)cc1",
    "groupLabel": "f"
  },
  {
    "compound": "Fc1ccc(NCc2cncn2Cc2ccc(-c3ccccc3)cc2F)cc1F",
    "groupLabel": "t"
  },
  {
    "compound": "Nc1cc(-c2ccccc2)ccc1Cn1cncc1CNc1ccc(Cl)c(N2CCCCC2)c1",
    "groupLabel": "t"
  },
  {
    "compound": "Fc1ccc(NCc2cncn2Cc2ccc(-c3ccccc3)cc2F)cc1",
    "groupLabel": "t"
  },
  {
    "compound": "Fc1ccc(NCc2cncn2Cc2ccc(-c3ccccc3)cc2Cl)cc1F",
    "groupLabel": "t"
  }
]

query: Confirm or reject: logP of Nc1cc(-c2ccccc2)ccc1Cn1cncc1CNc1ccc(Cl)c(-n2ccnc2)c1 lies strictly below 6
result: t

// data source = ChEMBL document CHEMBL2439965
